Hey, just so you know, these numbers are from patent US6376521B1.

# MEASURED TARGET: human A3 receptors (Homo sapiens, UniProt P0DMS8)
# Construct: expressed in transfected cells
# Sequence (P0DMS8 whole entry): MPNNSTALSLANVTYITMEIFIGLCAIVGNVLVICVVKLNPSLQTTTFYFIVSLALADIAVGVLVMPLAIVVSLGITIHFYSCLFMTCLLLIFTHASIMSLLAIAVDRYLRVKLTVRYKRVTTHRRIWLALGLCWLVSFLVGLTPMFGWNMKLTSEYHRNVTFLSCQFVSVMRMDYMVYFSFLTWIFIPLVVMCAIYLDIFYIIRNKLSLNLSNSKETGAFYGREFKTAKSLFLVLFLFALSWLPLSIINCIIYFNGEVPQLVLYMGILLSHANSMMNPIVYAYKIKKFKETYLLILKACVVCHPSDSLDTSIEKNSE
# EXPERIMENT DESCRIPTION: Displacement of specific [125I]AB-MECA binding at human A3 receptors expressed in HEK cells, in membranes
# EXPERIMENTAL CONTEXT: Table 2, compounds 33-58; [125I]AB-MECA, HEK cell membranes, n = 3-4; read-out: hA3 Ki ± S.E.M.
pKi: −log10 of the molar value.
Entry flag: Satisfied if pKi reaches 7; Not satisfied if it does not.

COMPOUND	MEASURED TARGET	CLASSIFICATION
CCCCc1nc(-c2ccccc2)c(C(=O)OCC)c(CC)c1C(=O)SCC	human A3 receptors (Homo sapiens, UniProt P0DMS8)	Satisfied
CCOC(=O)c1c(C2CCCC2)nc(CC)c(C(=O)SCC)c1CC	human A3 receptors (Homo sapiens, UniProt P0DMS8)	Not satisfied
CCCc1nc(-c2ccccc2)c(C(=O)OCC)c(CC)c1C(=O)SCC	human A3 receptors (Homo sapiens, UniProt P0DMS8)	Satisfied
CCOC(=O)c1c(-c2ccccc2)nc(C)c(C(=O)SCC)c1CC	human A3 receptors (Homo sapiens, UniProt P0DMS8)	Satisfied
CCCOC(=O)c1c(C)nc(-c2ccccc2)c(C(=O)OCC)c1C	human A3 receptors (Homo sapiens, UniProt P0DMS8)	Not satisfied

Exercise: Does the compound "CCOC(=O)c1c(C)nc(-c2ccccc2)c(C(=O)OCC)c1CC" have recorded pKi that is 7 or more?
Solution: Not satisfied

Exercise: Does the compound "CCOC(=O)c1c(-c2ccccc2)nc(CC)c(C(=O)SCC)c1CC" have recorded pKi that is 7 or more?
Solution: Satisfied

Exercise: Does the compound "CCOC(=O)c1c(-c2cccc(Cl)c2)nc(CC)c(C(=O)SCC)c1CC" have recorded pKi that is 7 or more?
Solution: Satisfied

Exercise: Does the compound "CCCc1c(C(=O)SCC)c(C)nc(-c2ccccc2)c1C(=O)OCC" have recorded pKi that is 7 or more?
Solution: Not satisfied

---

# MEASURED TARGET: human A3 receptors (Homo sapiens, UniProt P0DMS8)
# Construct: expressed in transfected cells
# EXPERIMENT DESCRIPTION: Displacement of specific [125I]AB-MECA binding at human A3 receptors expressed in HEK cells, in membranes
# EXPERIMENTAL CONTEXT: Table 2; ratio of affinities rat A1 vs human A3
REPORTED PROPERTY: rA1/hA3
Kindly provide the number alone.

The following compounds have reported results that may help.
COMPOUND STRUCTURE STRING	REPORTED PROPERTY	MEAS VALUE
CCCOC(=O)c1c(-c2ccccc2)nc(CC)c(C(=O)SCC(F)(F)F)c1CCC	rA1/hA3	460
CCCc1c(C(=O)SCC)c(CC)nc(-c2ccccc2)c1C(=O)OCCCF	rA1/hA3	630
CCCOC(=O)c1c(-c2cccc(F)c2)nc(CC)c(C(=O)SCC)c1CCC	rA1/hA3	280
CCCOC(=O)c1c(-c2ccccc2)nc(CC)c(C(=O)SCCF)c1CCC	rA1/hA3	150

Then this compound:
Exercise: Record "CCCCc1nc(-c2ccccc2)c(C(=O)OCC)c(CC)c1C(=O)SCC" : what is its rA1/hA3 with human A3 receptors (Homo sapiens, UniProt P0DMS8)?
Solution: 1200
